Source of measurements: patent US11905559B2

# Protocol Summary: Constant-force (CF) single-molecule optical tweezers folding assay of guanine-aptamer RNAs in guanine buffer
# Type: physicochemical
# Applied Conditions: transition BA (P1 folding); 3 mM Mg^2+, 200 nM G (rates at 8.5 pN)
Documented Equilibrium force F^eq across a set of molecules
The reply should contain only the number, in pN.

See these solved cases before continuing.
Molecule	Recorded Number
m4: m4 mutant guanine sensing aptamer RNA (SEQ ID NO: 5); A59G/U67C in the P3 hairpin (nucleic acid, RNA, backbone and methylation of C not given here, A59G/U67C in the P3 hairpin) CACUCAUAUAAUCGCGUGGAUAUGGCACGCAAGUUUCUACCGGGCGCCGUAAACGUCCGACUAUGGGUG	8.0
m6: m6 mutant guanine sensing aptamer RNA (SEQ ID NO: 7); U67A, shorter P3 hairpin and larger L3 loop (nucleic acid, RNA, backbone and methylation of C not given here, U67A, shorter P3 hairpin and larger L3 loop) CACUCAUAUAAUCGCGUGGAUAUGGCACGCAAGUUUCUACCGGGCACCGUAAAAGUCCGACUAUGGGUG	8.3
m8: m8 mutant guanine sensing aptamer RNA (SEQ ID NO: 9); A19G and U77C in the P1 hairpin (nucleic acid, RNA, backbone and methylation of C not given here, A19G and U77C in the P1 hairpin) CACUCGUAUAAUCGCGUGGAUAUGGCACGCAAGUUUCUACCGGGCACCGUAAAUGUCCGACUACGGGUG	8.8

Now consider the entry below.
Fill in the blank: the reported Equilibrium force F^eq of wt: 69-nucleotide full-length wild-type guanine sensing aptamer RNA sequence from xpt-pbuX operon in B. subtilis (SEQ ID NO: 1) (nucleic acid, RNA, backbone and methylation of C not given here) CACUCAUAUAAUCGCGUGGAUAUGGCACGCAAGUUUCUACCGGGCACCGUAAAUGUCCGACUAUGGGUG is ____. 8.2
